# system tested: adrenaline α1 receptor
# experiment summary: Affinity for adrenaline α1 receptor: inhibition of 3H-Prazosin binding to rat cerebral cortex membrane fraction
# test parameters: radioactive ligand, used in Ki calculation
# Protocol: A male SD strain rat (7-week old; Charles River) was decapitated, and brain was taken out therefrom quickly. Cerebral cortex of the rat was separated and extracted at […] under ice cooling. The extracted cerebral cortex was frozen at -80° C. for 24 hours or longer. […] The radioactivity of ^3 H-Prazosin adsorbed on the filter was determined in the same manner as mentioned above. […] The radioactivity of ^3 H-Prazosin adsorbed on the filter was determined in the same manner as mentioned above. […]
readout: pKd
Just so you know, pKd here is -log10 of the concentration in molar units; reply with that number alone.

// pKd lookup, molecule = COc1cc2nc(N3CCN(C(=O)c4ccco4)CC3)nc(N)c2cc1OC [^3 H-Prazosin, reference compound] , result: 9.88

----------
Let's look at some compounds and their measured Ki.
# system tested: adrenaline α1 receptor
# experiment summary: Affinity for adrenaline α1 receptor: inhibition of 3H-Prazosin binding to rat cerebral cortex membrane fraction
# test parameters: 3H-Prazosin, rat cerebral cortex membrane, 25° C. 30 min; tested as hydrochloride salt
API: value field is a number in nM; no unit string.

The compound O=C(NCCCCNCC1Cc2ccccc2O1)c1cccc2ccccc12 (stereo not shown) [Compound 101B] showed Ki equal to 150

Per the record, O=S(=O)(NCCCCNCC1Cc2ccccc2O1)c1cccc2ccccc12 (stereo not shown) [Compound 114B] has Ki of 96

***
compound O=C(NCCCCNCC1Cc2ccccc2O1)c1cccs1 (single isomer, unassigned; (-)) [Compound 111A] , Ki observed: 160

The reported value for CCN(CCCCNC(=O)c1cccs1)CC1Cc2ccccc2O1 (single isomer, unassigned; (-)) [Compound 117A] in terms of Ki is 580

The compound listed as O=C(NCCCCNCC1Cc2ccccc2O1)c1ccsc1 (stereo not shown) [Compound 107B] has a reported Ki of 230

For record O=C(NCCCNCC1Cc2ccccc2O1)c1cccc2ccccc12 (stereo not shown) [Compound 113B] the listed Ki is 95

The reported Ki of the compound O=C(NCCNCC1Cc2ccccc2O1)c1cccc2ccccc12 (stereo not shown) [Compound 112B] was 320

Lookup result for O=C(NCCCCNCC1Cc2ccccc2O1)c1ccc2ccccc2c1 (stereo not shown) [Compound 102B] ; measured Ki: 140

For record O=C(NCCCCNCC1Cc2ccccc2O1)c1cccs1 (stereo not shown) [Compound 106B] the listed Ki is 240

Data point: CN(CCCCNC(=O)c1cccs1)CC1Cc2ccccc2O1 (single isomer, unassigned; (-)) [Compound 116A] ; Ki = 530
